Values from patent US20220073643A1

ASSAY_SYSTEM: T1, human Claudin18.2 (human)
T1 construct: also called CLDN18.2
ASSAY: cell ELISA, Claudin18.2-expressing HEK293T cells
Experimental: To determine protein binding EC₅₀ by Cell ELISA, 96-well U-bottom microplates were pre-blocked with blocking buffer (5% MPBS, 1×PBS with 5% skim milk) overnight at 4° C. On the next day, the Claudin18.2-expressing HEK293T stable cell line was suspended at 1.5×10⁶ cells/ml in blocking buffer, added to the plate in 100 μl/well and incubated at room temperature for 1 hour. Raw data were plotted with GraphPad Prism v6.02 software with four parameters, best-fit value program to analyze the EC₅₀.
ENDPOINT_NAME: pEC50
// scale note: pEC50 = -log10(conc_M); give the bare number

Using the record for 237D2A4 (antibody, V domains shown, mouse hybridoma mAb) VH: QVQLKESGPGLVAPSQSLSITCTVSGFSLTSYGVSWVRQPPGKGLEWLGVIWGDGSTNYHSTLISRLRISKDKSKSQVFLKLNSLQTDDTATYYCAKAGRGNALDYWGQGTSVTVSS VL: DIVMTQSPSSLTVTAGEKVTMSCKSSQSLLNSGNQKNYLTWYQQKPGQPPKLLIYWASTRESGVPDRFTGSGSGTDFTLTISSVQAEDLAVYYCQNDYSFPLTFGAGTKLELK , state its measured pEC50.
8.72

Query pEC50 for 256C3D3 (antibody, V domains shown, mouse hybridoma mAb) VH: QAYLQQSGAELVRSGASVKMSCKASGYAFTSHNMHWVKQTPGQGLEWIGYISPGNGYTNYNQKFRGKATLTADTSSSTAYMQIGSLTSEDSAVYFCTRDYYGNSFAYWGQGTLVTVSA VL: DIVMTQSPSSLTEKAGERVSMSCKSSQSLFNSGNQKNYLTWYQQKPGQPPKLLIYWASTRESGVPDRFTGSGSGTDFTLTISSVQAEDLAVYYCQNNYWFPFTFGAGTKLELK
9.14

// fetch pEC50 given entry 203A6D5 (antibody, V domains shown, mouse hybridoma mAb) VH: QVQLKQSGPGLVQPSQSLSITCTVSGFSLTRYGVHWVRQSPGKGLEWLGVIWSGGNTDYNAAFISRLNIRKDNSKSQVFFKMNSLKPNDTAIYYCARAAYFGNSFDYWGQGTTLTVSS VL: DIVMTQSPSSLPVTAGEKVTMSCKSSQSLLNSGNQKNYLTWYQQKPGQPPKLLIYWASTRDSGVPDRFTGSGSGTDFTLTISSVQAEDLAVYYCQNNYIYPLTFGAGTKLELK
8.93

Using the record for 420G10G3 (antibody, V domains shown, mouse hybridoma mAb) VH: DVQLVESGGGLVQPGGSRKLSCAASGFTFSGFGMHWIRQTAEKGLEWVAYISSGSRPIYYADTVQGRFTISRDNPKNTLFLQMTSLRSEDTAMYFCARFYYGNSFDHWGQGTLVTVSA VL: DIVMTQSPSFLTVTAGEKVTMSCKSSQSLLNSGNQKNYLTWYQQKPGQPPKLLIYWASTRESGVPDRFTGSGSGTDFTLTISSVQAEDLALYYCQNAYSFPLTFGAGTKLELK , state its measured pEC50.
8.62

Quick one: give measured pEC50 for 429H6C5 (antibody, V domains shown, mouse hybridoma mAb) VH: DVQLVESGGGLVQPGGSRKLSCAASGFTFSSFGMHWVRQAPEKELEWVAYISSGSSTIYYAHTVKGRFTISRDNPKNTLFLRMTSLGSEDTAMYYCVRFYYGNSFVNWGQGTLVTVSA VL: DIVMTQSPSSLTATAGEKVTMSCKSSQSLLNSGNQKNYLTWYQQKPGQPPKMLIYWASTRESGVPDRFAGSGSGTDFTLTISSVQAEDLAVYYCQNAYIYPLTFGAGTRLELK
7.88
